System: human plasma
experimental details: Measurement of anti-blood coagulant activity (aPTT measurement method)
Type: biochemical
assay conditions: negative logarithmic value of concentration at which aPTT of the control was double-extended
Catalogue of paPTT2 readings, one per entry.
observation type: paPTT2

>  <compound>
N=C(N)N1CCc2ccc(C(=O)OCC3CCN(c4ccncc4)CC3)cc2C1 [compound of Ex. 2, ditrifluoroacetate]

>  <observation type>
paPTT2

>  <measured value>
5.4

$$$$
>  <compound>
N=C(N)N1Cc2ccc(C(=O)OCC3CCN(c4ccncc4)CC3)cc2C1 [compound of Ex. 7, ditrifluoroacetate]

>  <observation type>
paPTT2

>  <measured value>
4.6

$$$$
>  <compound>
N=C(N)N1CCc2ccc(COC(=O)C3CCN(c4ccncc4)CC3)cc2C1 [compound of Ex. 3, ditrifluoroacetate]

>  <observation type>
paPTT2

>  <measured value>
6.1

$$$$
>  <compound>
N=C(N)N1CCc2ccc(OC(=O)C3(COCc4ccccc4)CCN(c4ccncc4)CC3)cc2C1 [compound of Ex. 5, ditrifluoroacetate]

>  <observation type>
paPTT2

>  <measured value>
5.4

$$$$
>  <compound>
N=C(N)N1Cc2ccc(COC(=O)C3CCN(c4ccncc4)CC3)cc2C1 [compound of Ex. 8, ditrifluoroacetate]

>  <observation type>
paPTT2

>  <measured value>
<5

$$$$
>  <compound>
CC(=N)N1CCC(Oc2ccc(COC(=O)c3ccc4c(c3)CN(C(=N)N)CC4)cc2)CC1 [compound of Ex. 15, ditrifluoroacetate]

>  <observation type>
paPTT2

>  <measured value>
4.4

$$$$
>  <compound>
COCC1(C(=O)Oc2ccc3c(c2)CN(C(=N)N)CC3)CCN(c2ccncc2)CC1 [compound of Ex. 6, ditrifluoroacetate]

>  <observation type>
paPTT2

>  <measured value>
5.4

$$$$
>  <compound>
CC(=N)N1CCC(Oc2ccc(C(=O)OCc3ccc4c(c3)CN(C(=N)N)CC4)cc2)CC1

>  <observation type>
paPTT2

>  <measured value>
4.5

$$$$

From: patent US20110172416A1
